The entries below come with measured BRM Max % Inhibition values attached.
biological target: BRM (Homo sapiens); test: ATPase catalytic activity assay of BRM (ADP-Glo); assay type: biochemical
Sequence (P51531 whole entry): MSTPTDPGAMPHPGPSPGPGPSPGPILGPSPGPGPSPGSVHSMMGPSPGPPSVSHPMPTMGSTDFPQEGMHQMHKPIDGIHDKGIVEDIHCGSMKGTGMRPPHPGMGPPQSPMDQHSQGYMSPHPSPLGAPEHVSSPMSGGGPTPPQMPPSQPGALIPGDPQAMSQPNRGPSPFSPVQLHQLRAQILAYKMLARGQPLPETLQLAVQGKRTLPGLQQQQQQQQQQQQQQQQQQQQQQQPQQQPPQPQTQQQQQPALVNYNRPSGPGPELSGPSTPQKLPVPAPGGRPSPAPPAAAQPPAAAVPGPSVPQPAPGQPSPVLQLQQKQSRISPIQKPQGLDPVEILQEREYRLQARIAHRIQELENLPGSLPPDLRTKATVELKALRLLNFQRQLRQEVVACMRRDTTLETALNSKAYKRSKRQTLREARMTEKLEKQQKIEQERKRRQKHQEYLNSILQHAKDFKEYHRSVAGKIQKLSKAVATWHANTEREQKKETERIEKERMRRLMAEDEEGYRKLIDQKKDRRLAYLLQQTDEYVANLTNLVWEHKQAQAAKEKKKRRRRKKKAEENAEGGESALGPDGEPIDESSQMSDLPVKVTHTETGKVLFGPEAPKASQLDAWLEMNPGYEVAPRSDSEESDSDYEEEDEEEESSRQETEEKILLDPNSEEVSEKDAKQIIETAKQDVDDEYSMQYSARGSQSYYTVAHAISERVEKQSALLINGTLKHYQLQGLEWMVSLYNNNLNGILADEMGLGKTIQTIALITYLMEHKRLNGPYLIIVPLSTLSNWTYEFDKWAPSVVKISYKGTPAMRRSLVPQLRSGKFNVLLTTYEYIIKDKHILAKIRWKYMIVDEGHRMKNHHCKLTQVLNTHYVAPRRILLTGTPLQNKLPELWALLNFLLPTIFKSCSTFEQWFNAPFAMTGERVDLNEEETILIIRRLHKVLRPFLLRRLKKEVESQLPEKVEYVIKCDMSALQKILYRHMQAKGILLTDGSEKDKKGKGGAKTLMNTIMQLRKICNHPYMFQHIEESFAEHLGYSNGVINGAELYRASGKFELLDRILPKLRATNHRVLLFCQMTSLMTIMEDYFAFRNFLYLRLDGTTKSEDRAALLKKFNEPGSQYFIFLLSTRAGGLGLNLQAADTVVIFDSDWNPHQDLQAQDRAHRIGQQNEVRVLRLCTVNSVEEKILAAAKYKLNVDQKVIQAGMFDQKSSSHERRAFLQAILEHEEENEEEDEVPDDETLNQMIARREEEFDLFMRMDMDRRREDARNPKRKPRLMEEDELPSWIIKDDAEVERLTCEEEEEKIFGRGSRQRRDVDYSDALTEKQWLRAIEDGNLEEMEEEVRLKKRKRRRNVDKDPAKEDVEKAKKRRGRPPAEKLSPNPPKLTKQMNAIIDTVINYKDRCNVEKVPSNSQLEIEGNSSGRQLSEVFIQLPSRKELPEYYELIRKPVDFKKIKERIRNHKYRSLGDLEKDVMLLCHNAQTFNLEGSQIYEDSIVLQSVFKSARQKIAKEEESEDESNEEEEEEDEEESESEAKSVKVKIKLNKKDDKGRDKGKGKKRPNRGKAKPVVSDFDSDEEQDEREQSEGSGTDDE

Cc1cc(-c2cccc(-c3csc(NC(=O)CNC(=O)c4ccc5c(c4)[C@](C)(CO)CCC5)n3)n2)ncn1 : >95%

For reference, reported BRM Max % Inhibition for `C[C@@]1(C#N)COCc2ccc(C(=O)NCC(=O)Nc3nc(-c4ccccc4)cs3)cc21` stands at >95%

For reference, reported BRM Max % Inhibition for COC(=O)N1CCC[C@H](c2csc(NC(=O)CNC(=O)c3ccc4c(c3)C(C)(F)COC4)n2)C1 (stereo in doubt) stands at >95%

For reference, reported BRM Max % Inhibition for `C[C@@H]1CN(c2cccc(-c3csc(NC(=O)CNC(=O)c4ccc(F)c(C(C)(C)CO)c4)n3)c2)C[C@H](C)O1` stands at >95%
